TARGET UNDER TEST: HP motif peptide (Homo sapiens, UniProt Q9UPI3)
Construct: a synthetic 14-amino acid HP motif peptide
PROTOCOL DETAILS: Isothermal titration calorimetry of HP motif peptide binding to heme (one-site model)
EXPERIMENTAL PARAMETERS: synthetic 14-amino acid HP motif peptide, one-site binding model
pKd: −log10 of the molar value.
ASSAY ENDPOINT: pKd

>>> df
                              smiles_record  test_result
0  C=CC1=C(C)C2=Cc3c(C=C)c(C)c4[n]3[Fe][n]3c(c(C)c(CCC(=O)O)c3=CC3=NC(=C4)C(C)=C3CCC(=O)O)=CC1=N2        ~6.00

These entries and their values trace back to patent US20230313199A1.
